Measured values drawn from BindingDB's records for PubMed 36126447 for this set.

target: Programmed cell death 1 ligand 1 (Homo sapiens) (UniProt Q9NZQ7); assay: Inhibition of human PD-1/PDL1 protein-protein interaction by luminescence proximity homogeneous assay
Sequence (Q9NZQ7 whole entry, looked up): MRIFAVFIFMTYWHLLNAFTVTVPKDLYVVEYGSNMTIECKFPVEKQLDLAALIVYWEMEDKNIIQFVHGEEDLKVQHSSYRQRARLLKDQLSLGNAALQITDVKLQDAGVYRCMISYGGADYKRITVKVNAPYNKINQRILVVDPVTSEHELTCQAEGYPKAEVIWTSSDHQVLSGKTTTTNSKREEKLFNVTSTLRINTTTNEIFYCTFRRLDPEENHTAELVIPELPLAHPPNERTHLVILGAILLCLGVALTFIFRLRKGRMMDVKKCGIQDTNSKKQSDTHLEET
pIC50: −log10 of the molar value.
QUANTITY NAME: pIC50

- Cc1c(COc2ccc(C[C@H](N)C(=O)O)cc2Br)cccc1-c1ccccc1: 5.82
